// reported LC50 at 24 h for each item listed
Assay: Toxicity against Artemia salina nauplii after 24 hrs
Assay type: organism-based
Details: in vivo
Output spec: scalar in µM, unitless text.

# COMPOUND, LC50 at 24 h / µM
rows = [
    ("C#C/C=C\\C[C@@H]1O[C@H](/C=C/C)C/C=C\\C[C@@H]1Cl", 467),
]

API: the following record is the query input.
Value lookup for LC50 at 24 h; key = CC1(C)[C@H](Br)C[C@H](O)[C@]1(C)[C@@]1(O)CC[C@]2(C)[C@@H](Br)CC[C@@](C)(O)[C@@]2(O)C1 [NEOIRIETETRAOL]
40.1
